Experiment Summary: probe aNOTCH3 binding on compound microarray – biochemical, small-molecule microarray, 635/667 nm fluorescence, primary screen (AID 1120);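 also: probe is a biotin-tagged antibody raised against NOTCH3 rather than NOTCH3 protein; score merges spot fluorescence near 667 nm with spot signal to noise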
Measurement Context: higher = more signal
Decide using composite z-score: a value greater than or equal to 0.06 is True, a smaller one is False.

**Query** Has "COC(=O)[C@@]1(Cc2ccc(F)cc2)[C@H]2c3cc(C(=O)N(C)C)n(CCSCCO)c3C[C@H]2CN1C(=O)c1ccccc1" a recorded composite z-score greater than or equal to 0.06?
**Result** False

**Query** Has "COCCOC(=O)N1C(=O)[C@@]2(c3cc(C#CCNC(N)=O)ccc31)[C@H](C(N)=O)[C@H]1C(=O)O[C@H](c3ccccc3)[C@H](c3ccccc3)N1[C@@H]2c1ccc(OCCO)cc1" a recorded composite z-score greater than or equal to 0.06?
**Result** True

**Query** Has COc1cc(C(O)C2C=CC3C(=O)N(C)C(=O)C3N2NC(=O)OC(C)(C)C)cc(OC)c1OC (configuration not stated) a recorded composite z-score greater than or equal to 0.06?
**Result** True

**Query** Has "COc1cccc(C[C@H]2C[C@@H](CO[Si](C(C)C)(C(C)C)C(C)C)N3C(=O)[C@]4(C(C)=O)O[C@]23[C@H]2C(=O)N(C)C(=O)[C@H]24)c1" a recorded composite z-score greater than or equal to 0.06?
**Result** False

**Query** Has CC(C)=CCCC(C)=CC(O)C1C=CC2C(=O)N(c3ccccc3)C(=O)C2N1Nc1ccc([N+](=O)[O-])cc1 (configuration not stated) a recorded composite z-score greater than or equal to 0.06?
**Result** True

**Query** Has "C=C[C@H](C)[C@H](OC(=O)Nc1ccc(SC)cc1)c1ccc(O)c2ccccc12" a recorded composite z-score greater than or equal to 0.06?
**Result** False

**Query** Has "O=C(NCc1ccccc1)[C@]1(Cc2ccccc2)N=C(c2ccc(OCCCO)cc2)O[C@@H]1c1ccccc1" a recorded composite z-score greater than or equal to 0.06?
**Result** True

###

System: Sonic hedgehog protein (Shh)
Experiment Summary: Sonic hedgehog microarray binding compounds – biochemical, small-molecule microarray, 635/667 nm fluorescence, primary screen (AID 1151);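 also: Shh protein binding to compounds spotted on small-molecule microarray slides; score combines spot fluorescence intensity with signal-to-noise across triplicate slides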
Measurement Context: 635 nm fluorescence, higher = more signal
Property: composite z-score

The compound "COCCCNC(=O)[C@]1(Cc2ccccc2CN=[N+]=[N-])N=C(c2ccc(OCCCO)cc2)O[C@@H]1c1ccccc1CN=[N+]=[N-]" , tested on Sonic hedgehog protein (Shh), showed composite z-score of -0.256

The compound "CCCNC(=O)[C@@H]1c2ccccc2C(=O)N(CC23CC4CC(CC(C4)C2)C3)[C@H]1c1ccc(CO)cc1" , tested on Sonic hedgehog protein (Shh), showed composite z-score of 1.05

The compound "CCOC(=O)C1=CC[C@@H](c2ccccc2)N(S(=O)(=O)c2ccc(C)cc2)[C@H]1C=C(C)C" , tested on Sonic hedgehog protein (Shh), showed composite z-score of 0.839

The compound "COCC(=C=CC[C@@H](O)c1ccccc1OCCO)C[C@@H](O)COCc1ccccc1" , tested on Sonic hedgehog protein (Shh), showed composite z-score of 0.709

The compound "[N-]=[N+]=NCc1ccccc1[C@H]1OC(c2ccc(OCCCO)cc2)=N[C@@]1(Cc1ccccc1N=[N+]=[N-])C(=O)N1CCCCC1" , tested on Sonic hedgehog protein (Shh), showed composite z-score of 0.419

The compound "CCOC(=O)C1=CC[C@@H](c2cccc(Br)c2)N(S(=O)(=O)c2ccc(C)cc2)[C@H]1c1ccc([N+](=O)[O-])cc1" , tested on Sonic hedgehog protein (Shh), showed composite z-score of 0.778

The compound "CC(C)C[C@@H]1NC(=O)[C@@H]2C[C@H](C(=O)NCCCC[N+](C)(C)C)[C@H](c3cccc(OCCO)c3)N2C1=O" , tested on Sonic hedgehog protein (Shh), showed composite z-score of 2.11

The compound "Cc1ccc(S[C@]2(C(=O)NCCN3CCOCC3)CC(=O)N(C3Cc4ccccc4C3)[C@@H]2c2ccc(CO)cc2)cc1" , tested on Sonic hedgehog protein (Shh), showed composite z-score of -0.393
